Exercise: state measured COX-1/COX-2 Selectivity Index (IC50 ratio) for each of the compounds provided.
# study.target: COX-2 (Mus musculus, UniProt Q05769)
# Construct: lipopolysaccharide (LPS, 10 μg/mL) to induce COX-2; endogenous in cells; host or cells: J774 murine monocyte/macrophage cell line, LPS-stimulated
# Sequence (Q05769 18-604): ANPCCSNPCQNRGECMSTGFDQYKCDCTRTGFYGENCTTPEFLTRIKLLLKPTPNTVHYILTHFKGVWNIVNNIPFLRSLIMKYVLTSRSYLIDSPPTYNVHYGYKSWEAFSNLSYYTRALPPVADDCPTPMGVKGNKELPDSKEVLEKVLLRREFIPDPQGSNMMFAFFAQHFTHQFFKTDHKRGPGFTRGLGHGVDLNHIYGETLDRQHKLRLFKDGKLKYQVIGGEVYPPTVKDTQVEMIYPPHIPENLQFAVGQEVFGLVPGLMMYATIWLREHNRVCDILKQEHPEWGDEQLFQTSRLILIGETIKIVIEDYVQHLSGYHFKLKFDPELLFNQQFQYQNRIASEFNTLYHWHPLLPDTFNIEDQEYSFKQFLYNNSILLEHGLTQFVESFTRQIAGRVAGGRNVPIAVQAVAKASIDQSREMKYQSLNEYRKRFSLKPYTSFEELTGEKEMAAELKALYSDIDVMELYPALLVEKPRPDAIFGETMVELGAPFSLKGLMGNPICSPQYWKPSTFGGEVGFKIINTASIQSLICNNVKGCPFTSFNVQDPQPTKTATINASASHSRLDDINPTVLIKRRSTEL
# measurement.protocol: Assessment of COX-2 activity in LPS-stimulated J774 cells (PGE2 radioimmunoassay)
# Type: cell-based, murine
# condition.context: Table 2, Formula Ia

Query block: # lookup: COX-1/COX-2 Selectivity Index (IC50 ratio) of `CCCCOC(=O)Cc1cc(-c2ccc(S(C)(=O)=O)cc2)n(-c2ccccc2)c1C`
Result block: >7100

Query block: Please do the same for `CCCCOC(=O)Cc1cc(-c2ccc(S(C)(=O)=O)cc2)n(-c2ccc(F)c(F)c2)c1C` as well.
Result block: >3300

Query block: Same lookup for `CS(=O)(=O)c1ccc(C2=C(c3ccccc3)C(=O)OC2)cc1` , please.
Result block: >800

Query block: # repeat for `Cc1c(CC(=O)OC(C)C)cc(-c2ccc(S(C)(=O)=O)cc2)n1-c1cccc(F)c1`
Result block: >2300

Query block: Follow-up entry: `Cc1c(CC(=O)OC(C)C)cc(-c2ccc(S(C)(=O)=O)cc2)n1-c1ccc(F)c(F)c1`
Result block: >4700

Query block: What would you report for `COc1ccc(-n2c(-c3ccc(S(C)(=O)=O)cc3)cc(CC(=O)OC(C)C)c2C)cc1` ?
Result block: >4500
